System Tested: NADPH oxidase 5 (Homo sapiens) (UniProt Q96PH1)
Sequence (Q96PH1 whole entry, looked up): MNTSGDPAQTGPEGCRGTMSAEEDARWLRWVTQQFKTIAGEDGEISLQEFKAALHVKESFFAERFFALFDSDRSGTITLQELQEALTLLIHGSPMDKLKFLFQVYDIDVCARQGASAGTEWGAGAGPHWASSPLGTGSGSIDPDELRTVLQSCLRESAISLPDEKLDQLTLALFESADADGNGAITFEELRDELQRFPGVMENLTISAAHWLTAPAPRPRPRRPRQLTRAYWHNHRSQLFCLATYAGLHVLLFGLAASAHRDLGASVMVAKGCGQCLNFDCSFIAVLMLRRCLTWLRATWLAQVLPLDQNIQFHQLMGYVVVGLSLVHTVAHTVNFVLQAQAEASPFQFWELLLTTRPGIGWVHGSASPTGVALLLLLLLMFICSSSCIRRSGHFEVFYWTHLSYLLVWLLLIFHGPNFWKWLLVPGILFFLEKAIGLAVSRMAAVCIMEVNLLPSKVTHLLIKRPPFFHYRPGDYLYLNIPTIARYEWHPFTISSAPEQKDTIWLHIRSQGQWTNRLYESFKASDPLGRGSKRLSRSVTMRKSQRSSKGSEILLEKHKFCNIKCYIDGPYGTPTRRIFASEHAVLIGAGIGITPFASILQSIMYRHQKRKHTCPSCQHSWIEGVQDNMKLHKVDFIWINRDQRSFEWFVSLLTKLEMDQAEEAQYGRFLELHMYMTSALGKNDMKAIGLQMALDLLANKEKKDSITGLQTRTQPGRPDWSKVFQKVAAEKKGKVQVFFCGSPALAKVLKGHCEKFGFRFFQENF
Assay Details: NOX5-dependent H2O2 signal modulators, primary screen, NOX inhibitor project, cell-based, HEK293-NOX5, Amplex Red fluorescence (AID 1161)
Measurement Conditions: HEK293-NOX5, ionomycin, 45 min, higher = more signal
Experimental Readout: z-score

[[record]]
compound = "NCCCC[C@@H]1NC(=O)[C@H]2C[C@@H](C(=O)NCc3ccc(F)cc3)[C@@H](c3ccc(O)cc3)N2C1=O"
endpoint_value = 0.993

[[record]]
compound = "CN(C)CCCC[C@@H]1NC(=O)[C@@H]2C[C@H](C(=O)NCCCCCCNC(=O)CS)[C@H](c3cccc(OCCO)c3)N2C1=O"
endpoint_value = 1.84

[[record]]
compound = "CCCCC(O)C1C=CC2C(=O)NC(=O)C2N1Nc1ccccn1 (configuration not stated)"
endpoint_value = -2.17

[[record]]
compound = "COCCOC(=O)N1C(=O)[C@@]2(c3cc(C#CC4=CCCCC4)ccc31)[C@H](c1ccc(OCCO)cc1)N1[C@H](c3ccccc3)[C@H](c3ccccc3)OC(=O)[C@H]1[C@@H]2C(=O)N1CCCCCCC1"
endpoint_value = 1.3

[[record]]
compound = "C=C(/C(=C/C[C@@H](OC(C)=O)c1ccccc1OCCO)c1cc(C(=O)OC)ccc1OC)C(C)C"
endpoint_value = -1.43

[[record]]
compound = "Cc1ccc(F)cc1S(=O)(=O)N[C@@H]1CCN(Cc2ccc3c(c2)OCO3)C1"
endpoint_value = -0.687

[[record]]
compound = "C=CCC(OC(C)=O)[C@@H]1[C@@H](N(Cc2cccc3ccccc23)C(=O)c2ccc(C)cc2)c2cc(OCCCO)ccc2N1C(=O)c1ccc2ccccc2n1 (some centres not stated)"
endpoint_value = 2.44

